Collected set of IC50 measured with Cytochrome P450 2D6 (Homo sapiens, UniProt P10635) across studies.
Sequence (P10635 whole entry): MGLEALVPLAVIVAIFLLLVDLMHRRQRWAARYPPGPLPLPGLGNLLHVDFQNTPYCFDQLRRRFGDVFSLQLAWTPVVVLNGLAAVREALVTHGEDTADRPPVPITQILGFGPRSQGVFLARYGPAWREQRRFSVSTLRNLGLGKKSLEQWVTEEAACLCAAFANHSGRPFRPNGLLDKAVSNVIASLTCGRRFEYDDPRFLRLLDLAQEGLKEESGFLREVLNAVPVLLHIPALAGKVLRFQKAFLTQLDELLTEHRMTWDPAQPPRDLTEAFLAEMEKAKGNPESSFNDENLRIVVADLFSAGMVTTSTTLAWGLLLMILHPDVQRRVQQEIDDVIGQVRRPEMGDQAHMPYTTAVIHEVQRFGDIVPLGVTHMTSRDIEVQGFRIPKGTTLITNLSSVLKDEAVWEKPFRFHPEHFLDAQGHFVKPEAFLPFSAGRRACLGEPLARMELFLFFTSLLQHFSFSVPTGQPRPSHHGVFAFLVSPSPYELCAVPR
measurement.kind: IC50 (µM)

Below are worked cases with known answers.
[[record]]
molecule = "Cn1nnc(-c2oncc2CC(=O)N(C2CC3(CC3)C2)[C@@H](C(=O)NC23CC(C)(C2)C3)c2cc(F)ccc2F)n1"
experimental_system = "Cytochrome P450 2D6 (Homo sapiens, UniProt P10635)"
measurement_kind = "IC50"
number = 20

[[record]]
molecule = "CCOC(=O)c1c(C2CN(c3cc(C(=O)NCCN(CC)CC)c4ccccc4n3)C2)nc2ccccn12"
experimental_system = "Cytochrome P450 2D6 (Homo sapiens, UniProt P10635)"
measurement_kind = "IC50"
number = 9.7


[P] O=C1CCC(N2C(=O)c3cccc(NCCCCCn4cc(CN5CCN(CCCn6cc(C7=C(c8c[nH]c9ccccc89)C(=O)NC7=O)c7ccccc76)CC5)nn4)c3C2=O)C(=O)N1 (stereo not given)
[Q] Cc1cnc(-c2nc3c(F)c(-c4cccc(Cl)c4C)c(CCC#N)cc3c3c2cc([C@@H](C)N2CCOCC2=O)n3[C@H]2[C@H]3CN[C@@H]2C3)cn1
Field: entry with larger IC50 (options P / Q ). # answer = label of selected item
P

----------
pIC50 for Cytochrome P450 2D6 (Homo sapiens, UniProt P10635), merged from several publications.
pIC50: −log10 of the molar value.

Observe how each entry below is paired with its result.
[[record]]
chem_smiles = "O=C(Nc1cc(Cl)cc(Cl)c1)c1nc(-c2cccc(Cl)c2)cs1"
result = "< 5.00"

[[record]]
chem_smiles = "[2H]C([2H])([2H])NC1=NC(=O)[C@]2(CCc3ncccc32)c2cc(C(F)(F)F)ccc21"
result = "< 5.00"

[[record]]
chem_smiles = "Cc1nn(-c2cccnc2)c(C)c1-c1cc(N2CC3CCC(C2)O3)nc2c(-c3ccn[nH]3)cnn12.O=C(O)/C=C/C(=O)O"
result = "< 4.00"

[[record]]
chem_smiles = "COC(=O)c1cc(NC(=O)Cc2ccc(C)cc2)cc(-c2nc3ccccc3[nH]2)c1"
result = "< 4.52"

[[record]]
chem_smiles = "N#Cc1ccc(-c2csc(C(=O)Nc3ccc(C(F)(F)F)cc3)n2)cc1"
result = "< 5.00"


Lab note: next compound to report on.
Hi! What's the reported pIC50 for CCc1cnc(N2CCC(COc3ccc(C4=CC[C@H](C(=O)N5CCC[C@@H]5CO)CC4)cc3)CC2)nc1 on Cytochrome P450 2D6 (Homo sapiens, UniProt P10635)?
< 5.00
